Tested on: M19-MEL
Protocol Text: NCI tumour cell line growth inhibition, 48 h
The source made the active and inactive calls. Rule as the data show it: active = GI50 up to about 1.1 µM and inactive = higher.
Answer each item with its documented GI50.

Quick request: GI50 for each listed item, please.
1. Nc1ccc(S(=O)(=O)Nc2cnc3c(Cl)cccc3n2)cc1
2. COc1ccc2[nH]c3c(c2c1)[C@H](c1ccccc1)C[C@@H]1C(=O)N(c2ccccc2)C(=O)[C@H]31
3. O=C(CN(c1ccccc1)c1ccccc1)N1c2ccccc2C2C=CC=CC21 (stereo not drawn)

Key:
["232 µM (inactive)", "> 100 µM (inactive)", "21.5 µM (inactive)"]

###

Give measured GI50 for each item. Keep answers brief.
Tested on: SK-OV-3
Protocol Text: NCI tumour cell line growth inhibition, 48 h
Calls of active or inactive are those of the source. Rule as the data show it: active = GI50 up to about 1.1 µM and inactive = higher.

INSERT INTO results (compound, result_type, reported_measurement) VALUES
  ('O=c1c2ccccc2nc(-c2ccc(Cl)cc2)n1O', 'GI50', '28.2 µM (inactive)');

Batch request: GI50 per item, same order as input.
1. CCC(=O)Nc1ccc(NC(C#N)c2cccc(Oc3ccccc3)c2)cc1 (stereo not given)
2. CC1=C(SCc2ccccc2)C(=O)c2ccccc2C1=O
3. COc1ccc(-c2c(C#N)c(-c3ccccc3)n(NS(=O)(=O)c3ccccc3)c(=O)c2C#N)cc1
4. CSC(SC)=C(C(=O)c1ccc(Cl)cc1)n1c(=O)sc2cc(Br)ccc21
5. O=C(O)C(CS)NCc1c2ccccc2nc2ccccc12 (stereo not given)
6. CN(C)CCCSc1nc2c(c(=N)n1-c1ccccc1)c(=S)n(-c1ccccc1)c(=S)n2-c1ccccc1
7. Cc1nn(C(=O)c2ccccc2O)c2c1C(c1ccco1)SC(=N)N2 (stereo not given)

Key:
1. > 100 µM (inactive)
2. 20.2 µM (inactive)
3. > 100 µM (inactive)
4. > 100 µM (inactive)
5. > 100 µM (inactive)
6. 2.65 µM (inactive)
7. 3.3 µM (inactive)

Please go through the list and note GI50 for each compound.
1. CN(C)CCCNC(=O)c1cc(NS(=O)(=O)c2ccc3c(c2)C(=O)c2ccccc2C3=O)cn1C
2. CN1C=C(C(N)=O)C2CC(O)[C@@](NC(=O)CS(N)(=O)=O)(C(=O)O)C2C1 (stereo not given in full)

Key:
92.5 µM (inactive)
2.47 µM (inactive)
